Provenance of the data: patent US20250333515A1

# target of assay: T1, biotinylated recombinant CLL-1 protein (UniProt Q5QGZ9 65-265, limits assumed, biotinylated (site not stated))
# T1 construct: also called CLEC12A
# T1 sequence (looked up): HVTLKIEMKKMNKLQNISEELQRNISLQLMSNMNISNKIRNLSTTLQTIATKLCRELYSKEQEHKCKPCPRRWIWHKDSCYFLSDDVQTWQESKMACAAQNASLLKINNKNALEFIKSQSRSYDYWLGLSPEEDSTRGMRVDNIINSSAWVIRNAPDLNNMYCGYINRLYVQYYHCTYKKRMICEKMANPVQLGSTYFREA
# procedure summary: ELISA; biotinylated CLL-1 on neutravidin plate, FLAG-tagged binder, anti-FLAG HRP
pEC50: −log10 of the molar value.
value type: pEC50

binder	numeric result
Anti-CLL-1 Binder Clone 10 (scFv, scFv (VL-linker-VH); not shown: FLAG tag) scFv: DIQMTQSPSFLSASVGDRVTITCRASQGISSYLAWYQQKPGKAPKLLIYSASSLQSGVPSRFSGSGSGTDFTLTISSLQPEDFATYYCQQSYNSPTFGQGTRLEIKGGGGSGGGGSGGGGSQVQLVQSGAEVKKPGASVKVSCKASGYTFTGYYMHWVRQAPGQGLEWMGWMNPNSGNTGYAQKFQGRVTMTRNTSISTAYLELTSLTSDDTAVYYCARGDTGDFFDHWGQGTLVTVSS	8.96
Anti-CLL-1 Binder Clone 4 (scFv, scFv (VL-linker-VH); not shown: FLAG tag) scFv: QSVVTQPPSVSAAPGQKVTISCSGSSPNIGKNYVSWYQQLPGTAPKLLIYDNNKRPSGIPDRFSGSKSGTSATLGITGLQTGDEADYYCGTWDSSLSGYVFGTGTKVTVLGGGGSGGGGSGGGGSQVQLVESGGGVVQPGRSLRLSCAASGFTFSSYGMHWVRQAPGKGLEWVAFISHDGSNKYYADSVKGRSTISRDNSKSTLFLQMNSLRDEDTAVYFCAREGQLTTSWDFFDYWGHGTLVTVSS	8.85
Anti-CLL-1 Binder Clone 20 (VHH, also called 20 VH; VH clone 20; not shown: FLAG tag) VHH: QVQLVQSGGGLVQPGGSLRLSCAASDFSFSYYEMSWVRQAPGKGLEWVSTISGSGDSTYYADSVKGRFTISRDNTKNTLYLQMNTLRAEDTATYYCMTDGETWGTHRYTVYWGQGALVTVSS	8.33
Anti-CLL-1 Binder Clone 40 (scFv, scFv (VL-linker-VH); not shown: FLAG tag) scFv: QSVLTQPPSVSAAPGQKVTISCSGSSSNIGNNYVSWYQQLPGTAPKLLIYDNNKRPSGIPDRFSGSESGTSATLGITGLQTGDEADYYCGTWDSSLSAWVFGGGTQLIILGGGGSGGGGSGGGGSQVQLQQSGPGLVKPSQTLSLTCAISGDSVSSNSAAWNWIRQSPSRGLEWLGRTHYRSKWYNDYAVSVKSRITISADTSKNQFSLQLNSVTPEDTAVYYCARDRYTVRPDAFDIWGQGTTVTVSS	9.30
Anti-CLL-1 Binder Clone 2 (scFv, scFv (VL-linker-VH); not shown: FLAG tag) scFv: QSVLTQPLSVSVALGQTARITCGGNNIGSKNVHWYQQKAGQAPVLVIQRDSNRPSGIPERFSGSNSGNTATLTISRAQAGDEADYFCQVWDSNTYVFGTGTKLTVLGGGGSGGGGSGGGGSEVQLVESGGGLVKPGGSLRLSCAASGFTFSDYYMSWIRQAPGKGLEWVSYISSSGSTIYYADSVKGRFTISRDNAKNSLYLQMNSLRDEDTAVYYCARQSAEIVGAFDHWGQGTMVTVSS	9.05
Anti-CLL-1 Binder Clone 38 (scFv, scFv (VL-linker-VH); not shown: FLAG tag) scFv: DIQMTQSPSTLSASVGDRVTITCRASQSISSWLAWYQQKPGKAPKLLIYTASSLQSGVPSRFSGSESGTDFTLTISSLQPEDFATYYCQQSYSTPLTFGGGTKVDIKGGGGSGGGGSGGGGSQVQLVQSGAEVKKPGASVKVSCKASGYTFTGYYMHWVRQAPGQGLEWMGWINPNSGGTNYAQKFQGRVTLTRDTSITTAYLELTSLTSDDTAVYYCARGDTGDFFDHWGQGTLVTVSS	9.22
Anti-CLL-1 Binder Clone 12 (scFv, scFv (VL-linker-VH); not shown: FLAG tag) scFv: DIQMTQSPSSLSASVGDRVTITCQASQDISNYLNWYQQKPGKAPKLLIYDASNLETGVPSRFSGSGSGTDFTLTISSPQPEDLATYYCQQANSFPFTFGQGTKVEIKGGGGSGGGGSGGGGSQVQLVQSGAEVKKPGSSVKVSCKASGYSFTRNDITWVRQANGRGLEWLGRLNPNNGDTVYAEVFQGRVAMTRDTSTDTAYMELASLKSDDTAVYFCARGFWSFDVWGQGTMVTVSS	8.43
Anti-CLL-1 Binder Clone 11 (scFv, scFv (VL-linker-VH); not shown: FLAG tag) scFv: QSVLTQPASVSGSPGQSITISCTGTSSDVGASNSVSWYQRHPGKPPKLMIYDVSNRPSGISNRFSGSKSGNTASLTISGLQSEDEADYYCSSYTGSSTFVVFGGGTQLIILGGGGSGGGGSGGGGSEVQLVESGGGVVQPGGSLRLSCAASGFTFSSYWMSWVRQAPGKGLEWVANIRQDGSEKYYVDSVKGRFTISRDNAKNSLYLQMNSLRAEDAAVYYCAREQDTAMVAFDYWGQGTLVTVSS	8.85
Anti-CLL-1 Binder Clone 1 (scFv, scFv (VL-linker-VH) from a fully human scFv phage library; not shown: FLAG tag) scFv: SYVLTQPPSVSVAPGQTARITCGGNNIGSKSVHWYQQKPGQAPVLVVYDDSDRPSGIPERFSGSNSGNTATLTISRVEAGDEADYYCQVWDSSSDHPVFGGGTQLIILGGGGSGGGGSGGGGSQVQLVQSGAEVKKPGSSVKVSCKASGGTFSSYAISWVRQAPGQGLEWMGRIIPILGIANYAQKFQGRVTITADESTSTAYMELSSLRSEDTAVYYCAREKDDILTGAYYYGMDVWGQGTTVTVSS	8.47
Anti-CLL-1 Binder Clone 6 (scFv, scFv (VL-linker-VH); not shown: FLAG tag) scFv: QSVLTQPPSVSAAPGQKVSIFCSGGSSNIGKNYVSWYQQLPGTAPKLLIYENQHRPSGIPDRFSGSKSGTSATLGITGLQTGDEADYYCATWDDSLSAGVFGGGTELTVLGGGGSGGGGSGGGGSQLVQSGAEVRKPGESLKISCKGSGYSFTSYWIGWVRQMPGKGLEWMGFIYPGDSDTRYSPSFQGQVTISADKSISTAYLQRSSLKASDTAMYYCARLGGYSGYDSEVFYLDYWGQGTTVTVSS	9.05
Anti-CLL-1 Binder Clone 42 (scFv, scFv (VL-linker-VH); not shown: FLAG tag) scFv: EIVLTQSPATLSLSPGERATLSCRASQSVSSYLAWYQQKPGQAPRLLIYDASNRATGIPDRFSGSGSGTDFTLTISRLEPEDFAVYYCQQYGSSPVTFGQGTKLEIKGGGGSGGGGSGGGGSQVQLVQSGAEVKKPGSSVKVSCKASGGTFSSYAISWVRQAPGQGLEWMGGIIPIFGTANYAQKFQGRVIMTTDTSTSTAHMELRSLRSDDTAVYYCARDADEFGAFDIWGQGTTVTVSS	8.82
